Reference for the values: patent US9155706B2

- protocolDetails: Single-dose (Day 1) pharmacokinetics of Compound tablets, first-time-in-human study
- conditionDescription: human, plasma, po, 2 mg, AUC (0-24), single dose Day 1, oral tablets, fasting, 2.0 mg, mean (CV %) and range
assayMetric: AUC(0-t)

# query: AUC(0-t) of entry CC(=O)Nc1cccc(-n2c(=O)n(C3CC3)c(=O)c3c(Nc4ccc(I)cc4F)n(C)c(=O)c(C)c32)c1
44.2 to 77.4 ng·h/mL

###

- protocolDetails: Single-dose (Day 1) pharmacokinetics of Compound tablets, first-time-in-human study
- conditionDescription: human, plasma, po, 0.5 mg, Cmax, single dose Day 1, oral tablets, fasting, 0.5 mg, individual values
assayMetric: Cmax
Write your answer as a measured quantity: the number, then the unit.

# query: Cmax of entry CC(=O)Nc1cccc(-n2c(=O)n(C3CC3)c(=O)c3c(Nc4ccc(I)cc4F)n(C)c(=O)c(C)c32)c1 [Compound]
0.85 ng/mL

###

- protocolDetails: Single-dose (Day 1) pharmacokinetics of Compound tablets, first-time-in-human study
- conditionDescription: human, plasma, po, 8 mg, Tmax, Day 1, oral tablets, fasting, 8.0 mg loading dose, median (range)
assayMetric: Tmax

# query: Tmax of entry CC(=O)Nc1cccc(-n2c(=O)n(C3CC3)c(=O)c3c(Nc4ccc(I)cc4F)n(C)c(=O)c(C)c32)c1
1 to 24 h

###

- protocolDetails: clinical
- conditionDescription: human, plasma, oral, 2 mg
assayMetric: half-life

# query: half-life of entry CC(=O)Nc1cccc(-n2c(=O)n(C3CC3)c(=O)c3c(Nc4ccc(I)cc4F)n(C)c(=O)c(C)c32)c1
~5 days

###

- protocolDetails: Single-dose (Day 1) pharmacokinetics of Compound tablets, first-time-in-human study
- conditionDescription: human, plasma, po, 2 mg, Tmax, single dose Day 1, oral tablets, fasting, 2.0 mg, median (range)
assayMetric: Tmax

# query: Tmax of entry CC(=O)Nc1cccc(-n2c(=O)n(C3CC3)c(=O)c3c(Nc4ccc(I)cc4F)n(C)c(=O)c(C)c32)c1 [Compound]
1.5 to 2 h

###

- protocolDetails: Single-dose (Day 1) pharmacokinetics of Compound tablets, first-time-in-human study
- conditionDescription: human, plasma, po, 2 mg, Cmax, single dose Day 1, oral tablets, fasting, 2.0 mg, mean (CV %) and range
assayMetric: Cmax

# query: Cmax of entry CC(=O)Nc1cccc(-n2c(=O)n(C3CC3)c(=O)c3c(Nc4ccc(I)cc4F)n(C)c(=O)c(C)c32)c1
5.4 to 8.81 ng/mL

###

- protocolDetails: Single-dose (Day 1) pharmacokinetics of Compound tablets, first-time-in-human study
- conditionDescription: human, plasma, po, 2.5 mg, Cmax, single dose Day 1, oral tablets, fasting, 2.5 mg, mean (CV %) and range
assayMetric: Cmax

# query: Cmax of entry CC(=O)Nc1cccc(-n2c(=O)n(C3CC3)c(=O)c3c(Nc4ccc(I)cc4F)n(C)c(=O)c(C)c32)c1 [Compound]
6.7 to 16.2 ng/mL

###

- protocolDetails: Single-dose (Day 1) pharmacokinetics of Compound tablets, first-time-in-human study
- conditionDescription: human, plasma, po, 1 mg, AUC (0-24), single dose Day 1, oral tablets, fasting, 1.0 mg, individual values
assayMetric: AUC(0-t)
Write your answer as a measured quantity: the number, then the unit.

# query: AUC(0-t) of entry CC(=O)Nc1cccc(-n2c(=O)n(C3CC3)c(=O)c3c(Nc4ccc(I)cc4F)n(C)c(=O)c(C)c32)c1 [Compound]
13.5 ng·h/mL
